Data provenance is PubChem BioAssay (NCATS).

# PROCEDURE DETAILS: qHTS Assay for Lipid Storage Modulators (AID 1519); note: % is set by controls: 0 for no effect and ±100 for the full control effect
# CONDITION CONTEXT: Drosophila S3 cells, BODIPY lipid droplet/cell ratio, laser cytometry; at 25.7 µM (top of the series); cells loaded with oleic acid
Records with an inconclusive call do not appear. Activity calls are given as the source filed them. Calls come from the whole dose curve.
molecules and their reported activity change, negative = inhibition
MEASURED ENDPOINT: activity change, negative = inhibition

# STRUCTURE, VALUE OBSERVED
rows = [
    ("CCCCN1CCCC[C@H]1C(=O)Nc1c(C)cccc1C", "-1.47% (inactive)"),
    ("CC(C)NC[C@H](O)c1ccc(O)c(O)c1", "-3.67% (inactive)"),
    ("CCn1cc(C(=O)O)c(=O)c2cnc(N3CCNCC3)nc21", "-2.05% (inactive)"),
    ("CCCCN(CCCC)CCCOC(=O)c1ccc(N)cc1", "-3.3% (inactive)"),
    ("Nc1ccc(S(=O)(=O)Nc2ccc(Cl)nn2)cc1", "0.129% (inactive)"),
    ("CN(C)CCCN1c2ccccc2Sc2ccc(Cl)cc21", "-3.35% (inactive)"),
    ("CCCCOC(=O)c1ccc(O)cc1", "-2.55% (inactive)"),
    ("Cc1cc2c(cc1S(N)(=O)=O)S(=O)(=O)CCC2", "-2.69% (inactive)"),
    ("c1ccc2c(CC3=NCCN3)cccc2c1", "-0.324% (inactive)"),
    ("CC(=O)c1ccc2c(c1)N(CCCN(C)C)c1ccccc1S2", "-1.98% (inactive)"),
    ("CC1(C)OC(=O)NC1=O", "-0.879% (inactive)"),
]

====

# PROCEDURE DETAILS: qHTS profiling for inhibitors of Plasmodium falciparum proliferation (AID 504749); note: nearly all actives have a fitted effect of over 60% in size;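 for activity, negative = inhibition: 0% = DMSO vehicle and full inhibition = artemisinin control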
# CONDITION CONTEXT: P. falciparum in erythrocytes, SYBR Green DNA, 72 h; at 28.7 µM (top of the series); parasite line B
# Experimental: NIH National Institute of Allergy and Infectious Diseases [NIAID] NIH Chemical Genomics Center [NCGC] […] Because mature erythrocytes lack DNA, only Plasmodium-derived DNA is detected. NCGC Assay Protocol Summary: The SYBR Green viability assay was adapted from a method described previously (Plouffe et al., 2008). […] The following morning, fluorescence intensity at 485(14) nm excitation and 535(25) nm emission wavelengths was measured on an EnVision (Perkin Elmer) plate reader. […]
Records with an inconclusive call do not appear.

# COMPOUND, activity, negative = inhibition [%]
measured = [
    ("CC(O)COc1ccccc1 (centres undefined)", 0.212),
    ("CCCCCCCCCCCCCCCCCCOCC(O)CO (centres undefined)", 11.4),
    ("[Cl][In]([Cl])[Cl]", -19.4),
    ("CC(CN1c2ccccc2Sc2ccccc21)N(C)C (centres undefined)", -0.843),
    ("Cc1ccc(C(C)C)cc2c(C)ccc1-2", -20.9),
    ("Cc1c(Cl)cccc1Nc1ccccc1C(=O)O", 8.76),
    ("NC1CCN(c2cccc(Cl)n2)CC1", 5.51),
    ("O=C(O)[C@@H]1CSCN1", -0.798),
    ("N[C@@H](CSCCCO)C(=O)O", -2.52),
    ("CC(C)(C)C(=O)NCCCC(=O)O", -4.47),
    ("CCOc1nc2cccc(C(=O)O)c2n1Cc1ccc(-c2ccccc2-c2nn[nH]n2)cc1", -13.6),
    ("CCCCCCCCCCCCCCCC(=O)NCCO", 4.77),
    ("CN1CCC[C@@H]1Cc1c[nH]c2ccc(CCS(=O)(=O)c3ccccc3)cc12", -10.1),
    ("CCN(CC)CCNC(=O)c1cc(Cl)c(N)cc1OC", -3.16),
]

====

compounds and their reported activity change, negative = inhibition
# PROCEDURE DETAILS: AP1 Signaling Pathway (AID 357);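 note: ME-180 reporter cells stimulated with EGF at its EC50 level; % is set by controls: 0 for no effect and ±100 for the full control effect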
# CONDITION CONTEXT: ME-180 (cervical carcinoma) AP-1-bla reporter, EGF-induced, beta-lactamase ratio, 5 h; at 17.2 µM (top of the series)
Records with an inconclusive call do not appear.

# COMPOUND, activity change, negative = inhibition [%]
data = [
    ("C[C@H](N)[C@H](O)c1cccc(O)c1", 2.95),
    ("CN1[C@@H]2CC(OC(=O)[C@H](CO)c3ccccc3)C[C@H]1[C@@H]1O[C@@H]12 (stereo partly specified)", -6.51),
    ("CC(=O)c1ccc2c(c1)N(CCCN(C)C)c1ccccc1S2", 24.3),
    ("CNCCC(Oc1ccc(C(F)(F)F)cc1)c1ccccc1 (stereo unspecified)", 21.9),
    ("COc1ccc2c(c1)C(=O)N(CCc1ccc(S(=O)(=O)NC(=O)NC3CCCCC3)cc1)C(=O)C2(C)C", 12.1),
    ("CC1=C(CC(=O)O)c2cc(F)ccc2/C1=C\\c1ccc(S(C)=O)cc1 (stereo unspecified)", 6.13),
    ("CCN(CC)CCOC(=O)C1(C2CCCCC2)CCCCC1", 21),
    ("Nc1ccc(S(=O)(=O)Nc2nccs2)cc1", -3.49),
    ("CCC(=O)c1ccc(O)cc1", -4.26),
    ("C[C@@H]1C[C@H]2[C@@H]3C[C@H](F)C4=CC(=O)C=C[C@]4(C)[C@@]3(F)[C@@H](O)C[C@]2(C)[C@@]1(O)C(=O)CO", -11.1),
    ("CC(COc1ccccc1)NC(C)C(O)c1ccc(O)cc1 (stereo unspecified)", 9.92),
]

====

# PROCEDURE DETAILS: qHTS of pediatric cancer cell lines to identify multiple opportunities for drug repurposing: Primary screen for SK-N-MC cells (AID 1347093); note: potency is the fitted concentration of half-maximal effect
# CONDITION CONTEXT: SK-N-MC viability, CellTiter-Glo luminescence, 48 h; series mostly up to 46 µM
Inconclusive results are not listed. The source made the active and inactive calls. Calls come from the whole dose curve; as a rule, active = well fitted cell-killing curve with a large enough effect; inconclusive = small, poorly fitted or top-dose-only effect; inactive = no such curve, though single readings can be large or run the other way.
MEASURED ENDPOINT: Potency

# STRUCTURE, MEASURED ENDPOINT, VALUE OBSERVED
measured = [
    ("CCOC(=O)[C@H](CCc1ccccc1)N[C@@H](C)C(=O)N1C(=O)N(C)C[C@H]1C(=O)O", "Potency", "inactive"),
    ("O=c1cc[nH]c(=S)[nH]1", "Potency", "2660 nM (active)"),
    ("C[C@](N)(Cc1ccc(O)cc1)C(=O)O", "Potency", "1 nM (active)"),
    ("Cc1cc(O)cc2c1O[C@](C)(CCC[C@H](C)CCC[C@H](C)CCCC(C)C)CC2", "Potency", "inactive"),
    ("CC(=O)O[C@@]12CO[C@@H]1C[C@H](O)[C@@]1(C)C(=O)[C@H](O)C3=C(C)[C@@H](OC(=O)[C@H](O)[C@@H](NC(=O)OC(C)(C)C)c4ccccc4)C[C@@](O)([C@@H](OC(=O)c4ccccc4)[C@H]21)C3(C)C", "Potency", "1 nM (active)"),
    ("CS(=O)(=O)c1ccc([C@@H](O)[C@@H](CF)NC(=O)C(Cl)Cl)cc1", "Potency", "inactive"),
]

====

# Tested on: ICS
# PROCEDURE DETAILS: qHTS profiling for inhibitors of Plasmodium falciparum proliferation (AID 504749); note: nearly all actives have a fitted effect of over 60% in size
# CONDITION CONTEXT: P. falciparum in erythrocytes, SYBR Green DNA, 72 h; series mostly up to 28.7 µM
Records with an inconclusive call do not appear. Activity calls are given as the source filed them. Calls come from the whole dose curve; as a rule, active = well fitted inhibition curve with a large enough effect; inconclusive = small, poorly fitted or top-dose-only effect; inactive = flat fitted curve, though single readings scatter.
Outcome codes: active, inactive

# MOLECULE, ASSIGNED CLASS
rows = [
    ("O=C(O)c1ccccn1", "inactive"),
    ("Cc1ncc(COP(=O)(O)O)c(C=O)c1O", "inactive"),
    ("CCCCC(CC)COC(=O)c1ccccc1O (configuration not stated)", "inactive"),
    ("OCC(O)CN1CCN(c2ccccc2)CC1 (configuration not stated)", "inactive"),
    ("CCOC(=O)[C@H](CCc1ccccc1)N[C@@H](C)C(=O)N1C(=O)N(C)C[C@H]1C(=O)O", "inactive"),
    ("[O-][n+]1cccc(CO)c1", "inactive"),
    ("COc1cc2[nH]c(=O)[nH]c(=O)c2cc1OC", "inactive"),
    ("Cc1cc(O)cc2c1O[C@](C)(CCC[C@H](C)CCC[C@H](C)CCCC(C)C)CC2", "active"),
    ("CC1=C(/C=C/C(C)=C/C=C/C(C)=C/C(=O)O)C(C)(C)CCC1", "inactive"),
    ("COc1ccccc1O", "inactive"),
    ("C#CCN(C)Cc1ccccc1", "inactive"),
    ("Nc1ccc(S(=O)(=O)NC(=O)c2ccccc2)cc1", "inactive"),
    ("O=c1cc[nH]c(=S)[nH]1", "inactive"),
    ("CC1(C)OC(=O)NC1=O", "inactive"),
    ("CC(=O)Oc1ccc(C2(c3ccc(OC(C)=O)cc3)C(=O)Nc3ccccc32)cc1", "inactive"),
    ("NC(CSCC(=O)O)C(=O)O (configuration not stated)", "inactive"),
    ("CC(=O)Nc1ccc(/C=N/NC(N)=S)cc1", "inactive"),
    ("CCN(CC)CCNC(=O)c1c(C)[nH]c(/C=C2\\C(=O)Nc3ccc(F)cc32)c1C", "active"),
    ("NCCNCCNCCN", "inactive"),
    ("CC(CN1c2ccccc2Sc2ccccc21)N(C)C (configuration not stated)", "inactive"),
    ("CCCCN(CCCC)CC(O)c1cc(Cl)cc2c1-c1ccc(Cl)cc1/C2=C/c1ccc(Cl)cc1 (configuration not stated)", "active"),
    ("CC1(C)[C@@H]2CC[C@@]1(C)C(=O)C2", "inactive"),
    ("Cc1cccc(C)c1NC(=O)CN(CC(=O)O)CC(=O)O", "inactive"),
    ("C[C@]12C[C@H](O)[C@H]3[C@@H](CCC4=CC(=O)CC[C@@]43C)[C@@H]1CC[C@@H]2C(=O)CO", "inactive"),
    ("Nc1ccc(S(=O)(=O)Nc2ccc(Cl)nn2)cc1", "inactive"),
    ("CC(C)(C)C(=O)C(Oc1ccc(Cl)cc1)n1ccnc1 (configuration not stated)", "active"),
    ("CCOc1ccc2ccccc2c1C(=O)N[C@@H]1C(=O)N2[C@@H]1SC(C)(C)[C@@H]2C(=O)O", "inactive"),
    ("NS(=O)(=O)c1cc2c(cc1Cl)NC(CSCc1ccccc1)=NS2(=O)=O", "inactive"),
    ("CCC(=O)c1ccc(O)cc1", "inactive"),
    ("COc1cc(C(=O)N2CCOCC2)cc(OC)c1OC", "inactive"),
    ("CC[C@@]1(c2ccccc2)NC(=O)N(C)C1=O", "inactive"),
    ("COc1ccc2c(c1)C(=O)N(CCc1ccc(S(=O)(=O)NC(=O)NC3CCCCC3)cc1)C(=O)C2(C)C", "inactive"),
    ("Cc1cccc(Nc2cc(Cl)nc(SCC(=O)O)n2)c1C", "inactive"),
    ("Oc1ccc(C(O)CNCCCCCCNCC(O)c2ccc(O)c(O)c2)cc1O (configuration not stated)", "active"),
    ("[Cl][In]([Cl])[Cl]", "active"),
    ("O=C(O)[C@@H]1CSCN1", "inactive"),
    ("O=C1c2c(O)cccc2Cc2cccc(O)c21", "inactive"),
    ("C[C@H](N)[C@H](O)c1cccc(O)c1", "inactive"),
    ("O=C(O)c1ccccc1O", "inactive"),
    ("NC(=O)NC(=O)Cc1ccccc1", "inactive"),
    ("COc1ccc(S(=O)(=O)Nc2nnc(CC(C)C)s2)cc1", "inactive"),
    ("OCCN1CCN(CCCN2c3ccccc3Sc3ccc(Cl)cc32)CC1", "active"),
    ("O=c1cc[nH]c(=O)[nH]1", "inactive"),
    ("CCCCN(CCCC)CCCOC(=O)c1ccc(N)cc1", "inactive"),
    ("CCC(=O)Nc1ccc(O)cc1", "inactive"),
    ("NCCNCCNCCNCCN", "inactive"),
    ("CCCCOc1cc(C(=O)OCCN(CC)CC)ccc1N", "inactive"),
    ("CCCCc1ncc(/C=C(\\Cc2cccs2)C(=O)O)n1Cc1ccc(C(=O)O)cc1", "inactive"),
    ("CCCCCCCCCCCCCCCCCCOCC(O)CO (configuration not stated)", "inactive"),
    ("Cc1ccc(C(C)C)cc2c(C)ccc1-2", "inactive"),
    ("CSc1ccc2c(c1)C(N1CCN(C)CC1)Cc1ccccc1S2 (configuration not stated)", "active"),
    ("CN1CCCCC1CCN1c2ccccc2Sc2ccc(S(C)=O)cc21 (configuration not stated)", "active"),
]
